Items are presented alongside their recorded concentration at 3 d.
test: Concentration and elimination of ADP and its metabolites in liver, kidney, muscle, fat/skin after oral ^3H-ADP for 7 d; assay type: in vivo, swine; conditions: swine, kidney, oral, 5 mg/kg b.w.
Dear colleague, please return just the value in ng/g, with no unit written.

# compound, concentration at 3 d / ng/g
records = [
    ("COc1cc(Cc2cnc(N)nc2N)cc(OC)c1N(C)C [A0]", 1080),
    ("CNc1c(OC)cc(Cc2cnc(N)nc2N)cc1OC [A1, N-monodesmethyl-ADP]", 160),
]

As a next step, examine the compound that follows.
Quick one: concentration at 3 d for COc1cc(Cc2cnc(N)nc2N)cc(OC)c1N [A2, N-didesmethyl-ADP] ?
20
